biological target: Cannabinoid receptor 1 (Homo sapiens); assay: Agonist activity at human CB1 receptor expressed in insect Sf9 cells assessed as effect on Eu-GTP binding relative to CP-55940
Sequence (P21554 whole entry): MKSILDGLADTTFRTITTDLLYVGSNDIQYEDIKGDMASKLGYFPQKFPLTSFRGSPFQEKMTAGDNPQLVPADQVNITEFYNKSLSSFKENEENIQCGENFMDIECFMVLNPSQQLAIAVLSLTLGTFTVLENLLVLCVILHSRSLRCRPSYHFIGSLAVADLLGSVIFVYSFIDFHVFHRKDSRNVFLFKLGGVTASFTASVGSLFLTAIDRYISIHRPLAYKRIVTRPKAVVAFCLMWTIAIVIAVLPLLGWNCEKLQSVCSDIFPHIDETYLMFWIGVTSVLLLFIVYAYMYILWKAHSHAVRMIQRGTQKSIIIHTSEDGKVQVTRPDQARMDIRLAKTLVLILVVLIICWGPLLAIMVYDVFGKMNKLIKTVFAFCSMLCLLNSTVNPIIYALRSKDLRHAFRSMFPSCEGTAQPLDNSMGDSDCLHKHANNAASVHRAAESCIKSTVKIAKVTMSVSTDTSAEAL
result type: Emax (%)
Report the figure in % without appending any unit label.

Study these solved cases before continuing.
compound	result type	unit symbol	value measured
Fc1ccc(-c2noc([C@H]3C[C@@H]3CNc3cnc4ccccc4c3)n2)c(Cl)c1 (racemic)	Emax	%	8
Fc1ccc(-c2noc(C3CCN(c4ccnc5ccccc45)CC3)n2)c(Cl)c1	Emax	%	2
O=C(O)CCc1nc(-c2ccc(F)cc2Cl)no1	Emax	%	0.3
CC(C)n1ccc2cc(N3CCC(c4nc(-c5ccc(F)cc5Cl)no4)CC3)cnc21	Emax	%	13
CC(CCc1nc(-c2ccc(F)cc2Cl)no1)Nc1cnc2ccccc2c1 (racemic)	Emax	%	69
CC1(C)CCCc2cc(N3CCC(c4nc(-c5ccc(F)cc5Cl)no4)CC3)cnc21	Emax	%	93

// recorded Emax for "Fc1ccc(-c2noc(C3CCN(c4cnc5ccc(OC(F)(F)F)cc5c4)CC3)n2)c(Cl)c1" : 33
